As shown below, each of these binders has a reported Primary assay EC50 (cAMP), n2 value.
Molecular target: glucagon receptor (human, UniProt P47871 26-477)
Sequence (P47871 26-477): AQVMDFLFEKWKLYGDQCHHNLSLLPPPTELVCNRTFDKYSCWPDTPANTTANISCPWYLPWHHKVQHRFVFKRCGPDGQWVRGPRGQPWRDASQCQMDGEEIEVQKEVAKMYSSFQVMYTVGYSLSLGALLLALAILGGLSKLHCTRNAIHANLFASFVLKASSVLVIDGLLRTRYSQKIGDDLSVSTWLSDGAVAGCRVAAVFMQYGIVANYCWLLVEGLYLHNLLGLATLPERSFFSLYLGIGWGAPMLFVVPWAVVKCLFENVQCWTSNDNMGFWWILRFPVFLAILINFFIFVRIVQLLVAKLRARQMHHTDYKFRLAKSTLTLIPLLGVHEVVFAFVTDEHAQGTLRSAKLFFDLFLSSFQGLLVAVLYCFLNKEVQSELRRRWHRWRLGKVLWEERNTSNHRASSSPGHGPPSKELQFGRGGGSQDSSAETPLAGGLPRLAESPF
Test: cell-based or functional assay
Starred links: 1 amine or outer side, 2 acyl side, 3 side chain; linkers in the order of their positions; H or OH if unused. Non-standard residues stand in square brackets, D forms with d. Groups on a side chain read outwards from the residue. Primed or numbered codes have the meaning given here. No end group written: not given here. *: point of attachment. γGlu = O=C(O)[C@H](CCC(=O)[*:2])N[*:1]; Stearoyl = CCCCCCCCCCCCCCCCCC(=O)*; αMeF = C[C@](N)(Cc1ccccc1)C(=O)O; αMeK = C[C@](N)(CCCCN)C(=O)O; αMeS = C[C@](N)(CO)C(=O)O; PEG2′ = not defined here; Aib = CC(C)(N)C(=O)O
Quick note: give the figure in nM, leave out the unit.

H[Aib]EGS[αMeF]TSDVSK([PEG2′-PEG2′-γGlu-Stearoyl])YLEGEAAEE[αMeF]IA[αMeF]VVEGG-NH2 [SEQ ID NO 58]	25
HXEGTFTSDVSSYLEGQAAKEFIAWLVKGR (Aib 2; α-MeSer 11; C-terminal amide) [SEQ ID NO 21]	340

Inquiry: Reported Primary assay EC50 (cAMP), n2, binder H[Aib]EGS[αMeF]TSDVSK([PEG2′-PEG2′-PEG2′-Stearoyl])YLEGEAA[αMeK]E[αMeF]IA[αMeF]VVEGG-NH2 [SEQ ID NO 64] : ____
Reply text: 25

Inquiry: Request the reported Primary assay EC50 (cAMP), n2 associated with H[Aib]EGS[αMeF]TSDV[αMeS]S[αMeF]LEGEAAK([PEG2′-PEG2′-PEG2′-Stearoyl])E[αMeF]IA[αMeF]VVKGG-NH2 [SEQ ID NO 56]
Reply text: 26

Inquiry: I would be grateful if you could share the reported Primary assay EC50 (cAMP), n2 for H[Aib]EGS[αMeF]TSDV[αMeS]SYLEGEAAK([PEG2′-PEG2′-PEG2′-Stearoyl])E[αMeF]IA[αMeF]VV[αMeK]GG-NH2 [SEQ ID NO 53] .
Reply text: 26

Inquiry: Query (binder): H[Aib]EGS[αMeF]TSDVSK([PEG2′-PEG2′-γGlu-Stearoyl])YLEGEAA[Aib]E[αMeF]IA[αMeF]VVEGG-NH2 [SEQ ID NO 59] ; field requested: Primary assay EC50 (cAMP), n2
Reply text: 25.6

Inquiry: Param item = H[Aib]EGS[αMeF]TSDV[αMeS]S[αMeF]LEGEAAK([PEG2′-PEG2′-γGlu-Stearoyl])E[αMeF]IA[αMeF]VV[αMeK]GG-NH2 [SEQ ID NO 33] ; retrieve measured Primary assay EC50 (cAMP), n2.
Reply text: 25

Inquiry: Consider the binder shown here: H[Aib]EGS[αMeF]TSDV[αMeS]S[αMeF]LEGEAAK([PEG2′-PEG2′-γGlu-Stearoyl])EFIA[αMeF]VV[αMeK]GG-NH2 [SEQ ID NO 48] What is its recorded Primary assay EC50 (cAMP), n2?
Reply text: 26

Inquiry: // returns reported Primary assay EC50 (cAMP), n2 for input H[Aib]EGS[αMeF]TSDVSK([PEG2′-PEG2′-γGlu-Stearoyl])YLEGEAAKE[αMeF]IA[αMeF]VVEGG-NH2 [SEQ ID NO 57]
Reply text: 25
